Ref: patent US20210017287A1

- EXPERIMENTAL TARGET: T1, TNFRSF25-Fc fusion protein (UniProt Q93038 25-199, limits assumed, biotinylated in the capture ELISA (site not stated))
- T1 construct: also called TNFRSF25-Fc protein; biotinylated antigen protein; not shown: Fc part
- T1 sequence (looked up): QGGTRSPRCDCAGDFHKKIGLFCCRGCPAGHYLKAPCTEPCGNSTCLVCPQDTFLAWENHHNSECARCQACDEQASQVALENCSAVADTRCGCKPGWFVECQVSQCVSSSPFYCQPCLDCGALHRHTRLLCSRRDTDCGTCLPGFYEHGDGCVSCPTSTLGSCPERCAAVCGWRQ
- PROCEDURE DETAILS: single point capture ELISA, scFv captured by anti-c-myc, biotinylated antigen
VALUE KIND: OD450 (OD450)
Give bare numbers, in OD450.

Query string: # query: OD450 of entry 42G2 (scFv, V domains shown, scFv) VH: EVQLVESGGGLSQPGNSLQLSCEASGFTFSNHDLNWVRQAPGKGLEWVAYISSASGLISYADAVRGRFTISRDNAKNSLFLQMNNLKSEDTAMYYCARDPPYSGLYALDFWGQGTQVTVSS VL: QPVLTQSPSASASLSGSVKLTCTLSSELSWYTIVWYQQRPDKAPKYVMYLKSDGSHSKGDGIPDRFSGSSSGAHRYLSISNVQSEDDATYFCGAGYTLAGQYGWVFGSGTKVTVL
Result string: 3.19
